molecular target: LAP2, Q96RT1; test: holdup assay; design: key: below the threshold = too weak to quantify, mostly under pKd 3.1 to 4; settings: plain residues with an end cap or a label only (N-terminal biotin on a linker: ado-ado)
Sequence (Q96RT1 other isoform, or with tags, fused parts or gaps): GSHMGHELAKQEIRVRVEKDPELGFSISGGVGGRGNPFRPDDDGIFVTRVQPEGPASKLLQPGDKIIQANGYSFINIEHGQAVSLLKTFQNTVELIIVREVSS
readout: pKd

>>> df
                              binder               result
0         SPDRDRESIV [SCN5A, Q14524]  below the threshold
1        NTLNRKTTPV [CACNG8, Q8WXS5]  below the threshold
2         AQRARSPSDV [GPR12, P47775]                 3.51
3         DGVNEKVSCV [HTR2A, P28223]  below the threshold
4  KSRVAFFEEL [NF2, P35240;P35240-1]  below the threshold

Identify measured pKd corresponding to GTGYDRKDYV [CLDN3, O15551]
below the threshold

Identify measured pKd corresponding to APIAGFSSFV [SDK2, Q58EX2]
4.17

Identify measured pKd corresponding to VLYPREGTEV [FOXI1, Q12951]
3.52
